assay: ATG_NF_kB_CIS: Attagene CIS-FACTORIAL HepG2 Assay for human Nuclear Factor Kappa B (NF-kB) (AID 2282991); conditions: HepG2 Attagene cis-factorial NF-kB reporter mRNA; actives raise or lower the signal
Active and inactive are the calls of the source. Rule for the calls: active = hit-call score of the fitted dose curve at least 0.9, where 1 is the maximum; inactive = score below 0.9.
Possible outcomes: active, inactive

{"columns": ["Compound", "Classification"],
 "data": [
  ["CCOC(=O)c1ccccc1C(=C1C=C(Br)C(=O)C(Br)=C1)c1cc(Br)c(O)c(Br)c1", "active"],
  ["c1cc(N(CC2CO2)CC2CO2)ccc1OCC1CO1 (centres undefined)", "active"],
  ["CCCCCCCCCCCSCC(=O)O", "inactive"],
  ["O=C(O)C(c1ccc(Cl)cc1)c1ccc(Cl)cc1", "inactive"],
  ["O=[N+]([O-])c1ccc(CO)cc1", "inactive"],
  ["Nc1ccc(N=Nc2ccccc2)c(N)n1", "inactive"],
  ["CC=CC(F)(F)C(F)(F)C(F)(F)F", "inactive"],
  ["N=c1ccn2c(n1)O[C@H]1[C@H](O)[C@@H](CO)O[C@H]12", "inactive"],
  ["CCO[Si](CCCN=C=O)(OCC)OCC", "inactive"]
]}

----------
Assay: BSK_BE3C_SRB: Viability Assessment in the BioMAP Diversity Plus: BE3C Assay (AID 2283028)
Settings: primary human bronchial epithelial cells
Method: BSK_BE3C is a cell-based, multiplexed-readout assay that uses bronchial epithelial cell, a human lung primary cell, with measurements taken at 24 hours after chemical dosing in a 96-well plate.BSK_BE3C_SRB is an assay component measured in the BSK_BE3C assay. It measures 0.1% sulforhodamine related to cell death using Sulforhodamine staining technology.Data from the assay component BSK_BE3C_SRB was analyzed into 1 assay endpoint. […]
Activity calls are given as the source filed them. Rule for the calls: active = hit-call score of the fitted dose curve at least 0.9, where 1 is the maximum; inactive = score below 0.9.
Possible outcomes: 1.0 = active, 0.0 = inactive

{"columns": ["Compound", "Classification"],
 "data": [
  ["Nc1ccc(N)c(Cl)c1", 0.0],
  ["O=C(c1ccc(O)cc1)c1ccc(O)cc1O", 0.0],
  ["CCCCCCCCCCCCCCCC[N+](C)(C)CC", 1.0],
  ["CCO[Si](CCCN=C=O)(OCC)OCC", 0.0],
  ["CCCCC(CC)COCC1CO1 (stereo unspecified)", 0.0],
  ["CC1OC1C1CCC2(C)OC2C1 (stereo unspecified)", 0.0]
]}

----------
test: ATG_Oct_MLP_CIS: Attagene CIS-FACTORIAL HepG2 Assay for human Octamer-Binding Transcription Factor (Oct) (AID 2282993); conditions: HepG2 Attagene cis-factorial Oct reporter, mRNA; actives raise or lower the signal
Active and inactive are the calls of the source. Rule for the calls: active = hit-call score of the fitted dose curve at least 0.9, where 1 is the maximum; inactive = score below 0.9.
Classes used: Yes = active, No = inactive

{"columns": ["Compound", "Classification"],
 "data": [
  ["C1=CCCC1", "No"],
  ["CC(C)C1=CC2=CC[C@@H]3[C@](C)(CCC[C@@]3(C)C(=O)O)[C@H]2CC1", "No"],
  ["CC(C)=CCCC(C)C=O (stereo unspecified)", "No"],
  ["C[Si](C)(C)O[Si](O)(O)O", "No"],
  ["CCCCC/C=C\\C/C=C\\CCCCCCCC(=O)OC", "No"],
  ["CC(=O)NS(=O)(=O)c1ccc(N)cc1", "No"],
  ["COc1ccc(NC(C)=O)cc1N", "No"],
  ["Nc1ccc2cc3ccccc3cc2c1", "No"],
  ["CNC(=S)N(C)C", "No"],
  ["Cc1cccc(N)n1", "No"],
  ["CCCCC(CC)CCC(CC(C)C)OS(=O)(=O)O (stereo unspecified)", "No"],
  ["CCCCCCCCCCCCCCCCCC#N", "No"],
  ["COC(=O)c1cc(Cl)ccc1[N+](=O)[O-]", "No"],
  ["CCC(=O)Oc1ccc(/C(CC)=C(\\CC)c2ccc(OC(=O)CC)cc2)cc1", "No"],
  ["CC1=NC(C)OC1C (stereo unspecified)", "No"],
  ["CC(=O)OC1C2(C)CCC(C2)C1(C)C (stereo unspecified)", "No"],
  ["COCCCOCCCOC", "No"],
  ["CC(C)(C)c1ccc(N)cc1", "No"],
  ["CCCCCC/C=C/C=O", "No"],
  ["CCOC(=O)c1ccc(N(C)C)cc1", "No"],
  ["CCOc1ccc(N)c([N+](=O)[O-])c1", "No"],
  ["NCCCN1CCN(CCCN)CC1", "No"],
  ["Cc1cc(C)c(C)c(O)c1", "No"],
  ["S=C(NC1CCCCC1)NC1CCCCC1", "No"],
  ["CC=CC(F)(F)C(F)(F)C(F)(F)F", "No"],
  ["COc1cc(C)ccc1C(C)C", "No"],
  ["C=C(C)C(=O)OCCOc1ccccc1", "No"],
  ["Cc1cc(C)c(C)c(C)c1", "No"],
  ["CCO[Si](CCCN=C=O)(OCC)OCC", "No"],
  ["CC(=O)Nc1nnc(S(N)(=O)=O)s1", "No"],
  ["O=C(/C=C/C=C/c1ccc2c(c1)OCO2)N1CCCCC1", "No"],
  ["OCCCS", "No"],
  ["OC1CCCCCCCCCCC1", "No"],
  ["CC(C)c1ccc2c(c1)CC[C@H]1[C@](C)(CN)CCC[C@]21C", "Yes"],
  ["Nc1ccc(Cl)cc1Cl", "No"],
  ["COc1ccc(-c2coc3cc(O)ccc3c2=O)cc1", "No"]
]}

// provenance: PubChem BioAssay (EPA / NIEHS)
